Subject of test: UniProt Q8IB72
Experiment notes: IC50 for competition of protein binding to Kinobeads;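 note: native unpurified kinases from lysate captured on beads bearing immobilized kinase inhibitors, with bead-bound kinases quantified by mass spectrometry across compound doses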
Conditions: assay detail: Kinobeads competition in P. falciparum blood-stage lysate
Quantity measured: IC50

Looking for the measured IC50 of O=c1[nH]c2ccc(Cl)cc2c(NC2CN3CCC2CC3)c1-c1nc2ccccc2[nH]1 (stereo unspecified) , can you help?
> 20 µM

---

Subject of test: UniProt O97248
Experiment notes: IC50 for competition of protein binding to Kinobeads
Conditions: assay detail: Kinobeads competition in P. falciparum blood-stage lysate
pIC50: −log10 of the molar value.
Quantity measured: pIC50

Please look up its pIC50: O=c1[nH]c2ccc(Cl)cc2c(NC2CN3CCC2CC3)c1-c1nc2ccccc2[nH]1 (stereo unspecified)
< 4.70

---

Subject of test: UniProt O15770
Sequence (O15770 whole entry): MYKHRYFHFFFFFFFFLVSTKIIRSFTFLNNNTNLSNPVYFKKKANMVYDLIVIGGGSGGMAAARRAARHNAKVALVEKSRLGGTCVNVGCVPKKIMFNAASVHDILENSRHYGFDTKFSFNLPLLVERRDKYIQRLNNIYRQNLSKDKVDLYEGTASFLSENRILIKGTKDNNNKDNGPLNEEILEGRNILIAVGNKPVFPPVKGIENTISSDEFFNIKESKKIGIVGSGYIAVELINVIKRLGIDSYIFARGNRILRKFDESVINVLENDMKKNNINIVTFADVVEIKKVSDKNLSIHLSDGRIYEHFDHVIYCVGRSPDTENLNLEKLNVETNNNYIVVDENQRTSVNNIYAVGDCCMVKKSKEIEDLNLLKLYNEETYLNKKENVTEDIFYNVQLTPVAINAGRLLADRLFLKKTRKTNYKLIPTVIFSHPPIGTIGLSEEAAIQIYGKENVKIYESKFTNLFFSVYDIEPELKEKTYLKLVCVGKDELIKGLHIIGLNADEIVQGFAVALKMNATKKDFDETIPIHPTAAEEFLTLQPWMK
Experiment notes: IC50 for competition of protein binding to Kinobeads
Conditions: assay detail: Kinobeads competition in P. falciparum blood-stage lysate
Quantity measured: IC50

Return reported IC50; argument: O=c1[nH]c2ccc(Cl)cc2c(NC2CN3CCC2CC3)c1-c1nc2ccccc2[nH]1 (stereo unspecified)
> 20 µM

---

Subject of test: UniProt Q8IKV8
Experiment notes: IC50 for competition of protein binding to Kinobeads
Conditions: assay detail: Kinobeads competition in P. falciparum blood-stage lysate
pIC50: −log10 of the molar value.
Quantity measured: pIC50

Need pIC50 of O=c1[nH]c2ccc(Cl)cc2c(NC2CN3CCC2CC3)c1-c1nc2ccccc2[nH]1 (stereo unspecified) , thanks.
< 4.70

---

Subject of test: UniProt Q8IKI9
Experiment notes: IC50 for competition of protein binding to Kinobeads
Conditions: assay detail: Kinobeads competition in P. falciparum blood-stage lysate
Quantity measured: IC50

Recorded IC50 for O=c1[nH]c2ccc(Cl)cc2c(NC2CN3CCC2CC3)c1-c1nc2ccccc2[nH]1 (stereo unspecified) [CHIR-124] , please?
> 20 µM

---

Subject of test: UniProt Q8IBJ1
Experiment notes: IC50 for competition of protein binding to Kinobeads
Conditions: assay detail: Kinobeads competition in P. falciparum blood-stage lysate
pIC50: −log10 of the molar value.
Quantity measured: pIC50

// query pIC50 value for entry O=c1[nH]c2ccc(Cl)cc2c(NC2CN3CCC2CC3)c1-c1nc2ccccc2[nH]1 (stereo unspecified)
< 4.70

---

Subject of test: UniProt Q8I546
Experiment notes: IC50 for competition of protein binding to Kinobeads
Conditions: assay detail: Kinobeads competition in P. falciparum blood-stage lysate
Quantity measured: IC50

# query: IC50 | item O=c1[nH]c2ccc(Cl)cc2c(NC2CN3CCC2CC3)c1-c1nc2ccccc2[nH]1 (stereo unspecified) [CHIR-124] | system: UniProt Q8I546
> 20 µM

---

Subject of test: UniProt Q8IDW4
Experiment notes: IC50 for competition of protein binding to Kinobeads
Conditions: assay detail: Kinobeads competition in P. falciparum blood-stage lysate
pIC50: −log10 of the molar value.
Quantity measured: pIC50

Fill in: pIC50 of O=c1[nH]c2ccc(Cl)cc2c(NC2CN3CCC2CC3)c1-c1nc2ccccc2[nH]1 (stereo unspecified) [CHIR-124] is ___
< 4.70

---

Subject of test: UniProt Q8IDD4
Experiment notes: IC50 for competition of protein binding to Kinobeads
Conditions: assay detail: Kinobeads competition in P. falciparum blood-stage lysate
Quantity measured: IC50

Which IC50 value belongs to O=c1[nH]c2ccc(Cl)cc2c(NC2CN3CCC2CC3)c1-c1nc2ccccc2[nH]1 (stereo unspecified) ?
> 20 µM

// provenance: the supplement of paper PMC13386468
